Reference source: patent US20240216352A1

# Tested on: healthy participants
# assay.overview: Phase 1 Part A single ascending dose (SAD) and FE/pH cohort: safety, blood pressure
# Format: in vivo, human
# experimental.parameters: SAD 30 mg, D 1 4 h
value.type: Mean DBP

CCCN(C)C(=O)OCc1c(-c2ccc(O[C@H]3CCC[C@H](C(=O)O)C3)c(C)n2)nnn1C 65.2 mmHg

----------
# Tested on: healthy participants
# assay.overview: Phase 1 Part A single ascending dose (SAD) and FE/pH cohort: safety, blood pressure
# Assay type: in vivo, human
# experimental.parameters: SAD 3 mg, D 1 8 h
value.type: Mean DBP (mmHg)

CCCN(C)C(=O)OCc1c(-c2ccc(O[C@H]3CCC[C@H](C(=O)O)C3)c(C)n2)nnn1C 68
